- target.of.assay: Fatty acid-binding protein, liver (Mus musculus, UniProt P12710)
- Sequence (P12710 whole entry): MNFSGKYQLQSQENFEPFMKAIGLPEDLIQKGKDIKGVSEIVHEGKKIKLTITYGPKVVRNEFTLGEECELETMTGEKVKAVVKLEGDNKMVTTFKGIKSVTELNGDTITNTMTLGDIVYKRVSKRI
- experimental.protocol: FABP1 Fluorescent Ligand Displacement Assay
pKi: −log10 of the molar value.
Given measured pKi, output Satisfied if it is greater than or equal to 7 and Not satisfied if not.

[
  {
    "molecule": "COc1cc([N+](=O)[O-])cc2c1NC(c1ccc(Br)cc1)=NO2 [SCPI3]",
    "target.of.assay": "Fatty acid-binding protein, liver (Mus musculus, UniProt P12710)",
    "label.class": "Not satisfied"
  }
]

IN: Threshold query (pKi >= 7) on CCCCCCC(C)(C)c1cc(O)c2c(c1)OC(C)(C)[C@@H]1CC=C(CO)C[C@@H]21
OUT: Not satisfied

IN: Same read-out for CCCCCC=CCC=CCC=CCC=CCCCC(=O)Nc1ccc(O)cc1C [VDM11] ?
OUT: Satisfied

IN: Same lookup for CCCCCCC(C)(C)c1ccc([C@@H]2C[C@H](O)CC[C@H]2CCCO)c(O)c1 [ChEMBL_75020] , please.
OUT: Not satisfied

IN: Let us now turn to C=C(C)[C@@H]1CCC(C)=C[C@H]1c1c(O)cc(CCCCC)cc1O
OUT: Not satisfied

IN: Would you mind doing CC(=O)Nc1ccc(Nc2nc(-c3ccc(Cl)c(Cl)c3)cs2)cc1 [SCPI1] as well?
OUT: Not satisfied

IN: Input CCCCCn1cc(C(=O)c2cccc3ccccc23)c2ccccc21 [JWH-018]
OUT: Satisfied
